B1: Osa-1-4 twister ribozyme (parent)
chain: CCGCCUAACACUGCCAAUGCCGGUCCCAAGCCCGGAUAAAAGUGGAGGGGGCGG

- Variants of: B1
- protocol-summary: self-cleavage, relative activity (ratio to wild type); higher = more cleavage; co-transcriptional
So basically: self-cleavage at 0.08 or higher? That is satisfied. Lower than 0.08? That is not satisfied.

mutant-label	classification
A17C A8U	not satisfied
A41C G19A	satisfied

Enquiry: For this variant, is measured self-cleavage 0.08 or higher? A28U G42U
Return: not satisfied

Enquiry: For this variant, is measured self-cleavage 0.08 or higher? C11G C32U
Return: not satisfied

Enquiry: For this variant, is measured self-cleavage 0.08 or higher? G53U U12A
Return: satisfied

Enquiry: For this variant, is measured self-cleavage 0.08 or higher? A41G G34U
Return: satisfied

Enquiry: For this variant, is measured self-cleavage 0.08 or higher? C52G G51A
Return: satisfied

Enquiry: For this variant, is measured self-cleavage 0.08 or higher? U18G U24A
Return: satisfied

Enquiry: For this variant, is measured self-cleavage 0.08 or higher? A16C A36C
Return: satisfied

Enquiry: For this variant, is measured self-cleavage 0.08 or higher? C26G G34A
Return: satisfied

Enquiry: For this variant, is measured self-cleavage 0.08 or higher? A38G C25A
Return: satisfied
